# ASSAY_SUMMARY: label from the status in PepcDB records
ASSAY_READOUT: protein production

INSERT INTO assay_data (record_sequence, recorded_measurement) VALUES
  ('MTRPTHPNALIWLLLSIAIIALDQATKAWVLTSLPEYIPVPVIHGFWNWYRSYNTGAAFSFLSDAGGWQMWLFIALALGISGLLTFWLSRTPRREWRSALPYALIIGGGIGNVIDRFLHGHVVDFIQWYVGSYYWPSFNLADSAIVAGAIGIGLLSLFDSKHSPKTP', 'failed'),
  ('MIQALLQRYEKKIERRKLEKRTAFGAFAGRIGLVSNLFLFVSKFMIGLLSGSVSIMADAINSLSDTISSVLTLVGFYIAGKPADKEHPYGHERFEYISGMLVSLVITFIGFEFLTTSVDRILHPESIKVTPILFAVLALSIGIKIWQGLFYKKVSAKIDSQALVASAKDSFNDVYTTLAVLISAFIEGVTGLRIDGYIGFLIAAYIIYSGLQLIREFINELMGMRPSQTEIDEMKNVLSKMETIVGYHDLLIHNYGPSQTFASVHIEIDDRWDLNKAHQTIDAIEAKFKEELDVNLVCHIDPVNLYDPTQQFVHQTIKKIIRSFDASLKVHDIRLVTHGEEPKILFDLVLPTESKLSEFELGVEIQRQVYEKIGRYKVEITFDHTYLLQ', 'failed'),
  ('MIRFQPITTSDVQHYKFMEELLVESFPPEEYRELEHLREYTDRIGNFHNNIIFDDDLPIGFITYWDFDEFYYVEHFATNPALRNGGYGKRTLEHLCEFLKRPIVLEVERPVEEMAKRRINFYQRHGFTLWEKDYYQPPYKEGDDFLPMYLMVHG', 'failed');
